measured on: Plasmodium falciparum protein kinase 6 (PK6, PF3D7_1337100)
procedure text: PfPK6 kinase inhibitors, biochemical, TCAMS library (AID 1159586)
measurement setup: recombinant PfPK6, Kinase-Glo ATP depletion luminescence
Potency and affinity values are given separately. Activity calls are given as the source filed them. No rule for the calls is given here.
measured metric: outcome

compound	outcome
NC(N)=NN=CC(=O)Nc1ccc(C(F)(F)F)cc1	inactive
CCC[C@@H]([C@@H](CC1CCC(C)CC1)C(=O)N[C@@H](CCCNc1ncccn1)C(=O)Nc1nccs1)N(O)C=O (stereo not given in full)	inactive
N[C@@H](COc1cccc2c(-c3ccncc3)c(-c3cccc(NC(=O)Nc4ccccc4)c3)nn12)c1ccccc1	inactive
Oc1cccc(Nc2nc(NCC3CCCO3)c3ccccc3n2)c1 (stereo not given)	inactive

Next, consider the following compound.
Param item = Cc1c(N)ccc2[nH]c(-c3ccc(N)cc3)nc12 ; retrieve measured outcome.
inactive

---

procedure text: HepG2 cytotoxicity, primary screen, cytotoxicity control for P. falciparum antimalarial project, cell-based, ATP luminescence (AID 2303);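 also: 0% = DMSO wells and 100% = digitonin-killed cells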
measurement setup: HepG2 viability, 24-48 h, at 10 µM, active compounds read high
Calls of active or inactive are those of the source.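 How the source made its calls: active means inhibition above 50%; inactive means the rest.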
Consider the following compounds; for each one, report its inhibition.

# example entries with known answers
compound	inhibition
CN1CCCC(CN2CCN(Cc3cccc(-c4ccc(-c5nc6ccc(F)cc6[nH]5)cc4)c3)CC2)C1 (stereo not given)	78% (active)
O=C(Cc1ccsc1)NCC(c1ccccc1Cl)c1c[nH]c2ccccc12 (stereo not given)	0% (inactive)
COc1cccc(NC(=O)c2cc(Br)cc(N3CCN(c4ccncc4)CC3)c2)c1	30% (inactive)
Fc1ccc2[nH]c3c(NCCN4CCCCC4)ncnc3c2c1	24% (inactive)
COc1cc2nc(N3CCC(CNC(=O)c4ccc(-c5ccc(C(=O)N(C)C)cc5OCCN(C)C)cc4)CC3)nc(N)c2cc1OC	-1% (inactive)
Cc1nn(C2CCS(=O)(=O)C2)c(C)c1C1Nc2ccccc2C(=O)N1Cc1ccc2c(c1)OCO2 (stereo not given)	7% (inactive)
CN(C)Cc1c(O)ccc2[nH]c(-c3cccc(F)c3)nc12	9% (inactive)
C=CCc1cc(Cc2cnc(N)nc2N)cc(CCC)c1OC	3% (inactive)
Cc1ccc(O)cc1Nc1ccnc2ccc(-c3cccc(CN(C)C)c3)cc12	-3% (inactive)
O=C(n1c(-c2cc3ccccc3n2C(=O)C(F)(F)F)cc2ccccc21)C(F)(F)F	30% (inactive)

Below is a list of compounds. For each, state its recorded inhibition.
1. CCOC(=O)C(C(C)=O)C(c1ccccc1)C(C(C)=O)C(=O)OCC (stereo not given)
2. CN(C)CCNCc1nc(-c2ccc3c(Nc4ccc(Cl)cc4F)ccnc3c2)cs1
3. FC(F)(F)c1ccc2nccc(NN=Cc3ccccc3)c2c1

["6% (inactive)", "-2% (inactive)", "7% (inactive)"]

Here are 7 compounds. What values of inhibition were reported for them?
1. Cc1ccc(NC(=O)Nc2ccc(Cl)cc2)cc1-c1cccc(C(=O)Nc2ccc(F)cc2)c1
2. CC(C)(C)c1ccc(CN2CCC(CNC(=O)c3cc(-c4cccc(C(F)(F)F)c4)cs3)C2)cc1 (stereo not given)
3. O=C(Cc1cccnc1)Nc1cccc(-c2cccc(-c3nc4ccc(C(F)(F)F)cc4[nH]3)c2)c1
4. CCn1cc(C(=O)O)c(=O)c2cc(F)c(N3CCN(S(=O)(=O)c4ccc(N)cc4)CC3)cc21
5. O=C(NCCCCN1CCC(c2cccc3ccccc23)CC1)c1ccc(-c2ccc(C(F)(F)F)cn2)cc1
6. CC(=O)c1sc(NC(=O)Nc2ccc(C)cc2C)nc1C
7. O=C(Nc1ccc(OC2CCN(Cc3ccco3)C2)c(Cl)c1)c1ccc2ncccc2c1 (stereo not given)

8% (inactive)
80% (active)
42% (inactive)
-2% (inactive)
31% (inactive)
5% (inactive)
1% (inactive)

---

procedure text: HepG2 cytotoxicity, primary screen, cytotoxicity control for P. falciparum antimalarial project, cell-based, ATP luminescence (AID 2303);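 also: 0% = DMSO wells and 100% = digitonin-killed cells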
measurement setup: HepG2 viability, 24-48 h, at 10 µM, active compounds read high
Could you mark each record 1 if its inhibition falls strictly under 20%, and -1 if it equals or exceeds it?

compound	category label
COc1ccc(-c2cc(-c3nc4ccc(C(=O)N5CCOCC5)cc4[nH]3)c(=O)n(C)c2)cc1OC	1
O=C(NC1CCN(c2ccnc(Nc3ccc(F)cc3)n2)C1)c1cc2ccccc2s1 (centres undefined)	1
COc1ccc(CNc2nc(NCc3ccccc3)c3cc(OC)c(OC)cc3n2)cc1OC	-1
O=C(NCCCCN1CCC[C@@H]2c3cccc(O)c3CC[C@@H]21)c1ccc(-c2ccccc2)cc1	1
Cc1ccc(O)cc1Nc1ccnc2cc(-c3csc(CN4CCN(C)CC4)n3)ccc12	1

Confirm or reject: inhibition of O=C1CCCC1Sc1nc2ccccc2c(=O)n1-c1ccc(Cl)c(Cl)c1 (centres undefined) lies strictly below 20%
1

Next entry: Cc1cc(N[C@@H](Cc2ccccc2)C(=O)NCCOc2ccccc2)nc(NCC2CCCCC2)n1
-1

Also need CS(=O)(=O)c1ccc(CCNCc2ccc(-c3ccc(CNC4CCN(Cc5ccccc5)CC4)cc3)nc2)cc1 , thanks.
-1

Try this compound too: Cc1cc(C(=O)NC2CCN(Cc3ccccc3)CC2)ccc1-c1nc2cc(Cl)c(Cl)cc2[nH]1
1

---

Would you mind telling me the reported growth inhibition of each entry?
procedure text: inhibition of 3D7 malaria parasite growth – strain 3D7 (AID 2306);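 also: 0% = DMSO wells and 100% = chloroquine plus artemisinin control wells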
measurement setup: P. falciparum 3D7 erythrocytic growth, LDH absorbance, 72 h; at 2 µM; active compounds read high
Answers are plain numbers, in %.

Take a look at these entries with their results.
compound	measured metric	u	obs value
CCCCOC(=O)c1ccc(NC(=O)Nc2ccc(Cn3ncc(N4CCCNCC4)c(Cl)c3=O)cc2)cc1	growth inhibition	%	92
Cc1nn(-c2ccccc2)c2nc(-c3ccccc3)cc(C(=O)N3CCOCC3)c12	growth inhibition	%	93
CN(CCN(C)CC(O)c1ccc(Cl)c(Cl)c1)CC(O)c1ccc(Cl)c(Cl)c1 (stereo not given)	growth inhibition	%	91
CCC(NC[C@@H](O)[C@H](Cc1ccccc1)NC(=O)c1cc(C2CCCC2)cc(N2CCCC2=O)c1)c1cccc(Cl)c1 (stereo not given in full)	growth inhibition	%	100
Oc1ccc2c(c1NCC1CCCCC1)CCCC2	growth inhibition	%	99
Cc1cc(N2CCC(N(C)C)C2)nc(Nc2ccc(Cl)cc2)n1 (stereo not given)	growth inhibition	%	99
COC(=O)c1cccc(CNCc2cccc(-c3cccc(-c4nc5ccccc5[nH]4)c3)c2)c1	growth inhibition	%	95
NC(=O)c1ccc(NCC(=O)Nc2cccc(-c3cccc(-c4nc5ccc(C(F)(F)F)cc5[nH]4)c3)c2)cc1	growth inhibition	%	99
Nc1c(C(=O)NCCCCN2CCN(c3nsc4ccccc34)CC2)sc2ccccc12	growth inhibition	%	86
COc1cc2nc(NCCc3ccccc3)nc(N(C)Cc3ccccc3)c2cc1OC	growth inhibition	%	96

Batch lookup, growth inhibition per entry.
1. Oc1cccc(-c2nc3ccc(C4=N[C@@H]5CCCC[C@H]5N4)cc3[nH]2)c1
2. Cc1ccc(S(C)(=O)=O)cc1/C=C/C(=O)O
3. Cc1cc(NC(=O)CCCN2CCN(c3cccc(Cl)c3Cl)CC2)ccc1N1CCN(C(C)C)CC1
4. Cc1cc(NN=Cc2ccccc2)c2cc(F)ccc2n1
5. CCc1cc(NCc2ccncc2)nc(Nc2ccc(F)cc2)n1
6. CCCn1c(Sc2ccc(C#N)c([N+](=O)[O-])c2)nnc1-c1ccc(OC)cc1
7. Cc1ccc(S(=O)(=O)/N=C(\N)NC(N)=O)cc1

1. 94
2. 96
3. 102
4. 101
5. 92
6. 94
7. 94

---

measured on: L-lactate dehydrogenase (Plasmodium falciparum (isolate CDC / Honduras)) (UniProt Q27743)
Sequence (Q27743 whole entry, looked up): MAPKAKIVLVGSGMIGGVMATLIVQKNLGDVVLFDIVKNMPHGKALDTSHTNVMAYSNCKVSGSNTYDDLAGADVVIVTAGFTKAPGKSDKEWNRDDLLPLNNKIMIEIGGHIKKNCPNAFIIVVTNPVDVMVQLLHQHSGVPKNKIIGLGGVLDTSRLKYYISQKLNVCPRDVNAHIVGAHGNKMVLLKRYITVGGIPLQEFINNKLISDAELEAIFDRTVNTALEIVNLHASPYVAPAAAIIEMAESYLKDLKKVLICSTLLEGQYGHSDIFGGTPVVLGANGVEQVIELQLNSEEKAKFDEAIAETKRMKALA
procedure text: PfLDH activity inhibition – cell lysate, 3D7 strain, counter-screen for P. falciparum growth inhibition project (AID 2304);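 also: 0% = vehicle and 100% = reference inhibitor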
measurement setup: P. falciparum 3D7 crude extract, LDH APAD/NBT absorbance; at 2 µM; active compounds read high
For each of the compounds below, state its inhibition.
Numbers only, in %.

compound	inhibition / %
Cn1c(N)c(C(=O)CSc2nnc(-c3cccs3)n2Cc2ccccc2)c(=O)n(C)c1=O	-3

Take each entry in turn and give its inhibition.
1. O=C(Nc1cccc(CN2CCCN(Cc3cccc(F)c3)CC2)c1)c1ccc(Cl)c(Cl)c1
2. CN1CCCN(Cc2ccc(-c3ccc(NC(=O)c4ccc(Cl)cc4)cc3)cc2)CC1
3. O=S1C(Cl)=C(c2ccc(Cl)cc2)c2ccc(Cl)cc21 (stereo unspecified)
4. OCCCCCCN=Cc1[nH]c(=S)sc1O
5. O=C(Nc1ccc(-c2nc3ccccc3[nH]2)cc1)C1CCCN(CC2CC2)C1 (stereo unspecified)

1. -1
2. 3
3. 1
4. 4
5. 0

---

So I've got a bunch of compounds here, and I need their inhibition values.
procedure text: HepG2 cytotoxicity, primary screen, cytotoxicity control for P. falciparum antimalarial project, cell-based, ATP luminescence (AID 2303);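 also: 0% = DMSO wells and 100% = digitonin-killed cells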
measurement setup: HepG2 viability, 24-48 h, at 10 µM, active compounds read high
One number for each entry, in %.

Here is how some compounds turned out for inhibition.
compound	inhibition / %
CCOC(=O)c1cn(CC)c2cc(N(C)CCc3ccc(OC)c(OC)c3)c(F)cc2c1=O	9
COc1cc(Cc2cnc(N)nc2N)cc(OCCNC(=O)OCc2ccccc2)c1OC	6
CCc1cc(NC(=O)Nc2ccnc3ccccc23)ccc1OC	-6
CC1CCC(C(C)C)C(OC(=O)CSc2nnc3c(n2)[nH]c2ccccc23)C1 (stereo not given)	-5
COc1ccc2ccccc2c1C=NNc1cc(C)nc2cc(C(F)(F)F)ccc12	1
CC(CN1CCN(C)CC1)C(=O)Nc1ccc(-c2csc(-c3nc4ccccc4[nH]3)c2)cc1 (stereo not given)	15
O=C(Nc1cccc(Cl)c1N1CCOCC1)C(Cl)(Cl)Cl	3
O=C(C=Cc1ccc(Cl)c(Cl)c1)NCCCCCN1CCC(CCNC(=O)c2ccc3c(c2)OCO3)CC1	35

For every record below, what is its inhibition?
1. CSCCC(C(=O)O)N1C(=O)c2ccccc2C1=O (stereo not given)
2. c1cncc(CN2CCCN(c3ccc4c(c3)CCN(Cc3ccc(-c5ncc[nH]5)cc3)CC4)CC2)c1

[-4, 7]

FYI, the data here is from PubChem BioAssay.
